metric_name: melting point

C=C1CS(=O)C2C(NC(=O)COc3ccccc3)C(=O)N2C1C(=O)OCc1ccc([N+](=O)[O-])cc1 (centres undefined): 200 to 201 °C
CC1(C)CC(O)CC(C)(C)N1CC(O)CN1C(C)(C)CC(O)CC1(C)C: 186 to 190 °C
CC(=O)c1c(C)[nH]c(-c2cccc(C)c2)c1N: 195 to 197 °C
NS(=O)(=O)OCCCN1CCC(C(O)(c2ccc(F)cc2)c2ccc(F)cc2)CC1: 78 to 81 °C
Cc1nc(N)c(C#N)c(NCc2cncc(Br)c2)n1: 283 to 284 °C

Query: Quote melting point reported for "CC(C)(C)c1cc(-c2csc3nc(-c4ccccc4)c(-c4ccccc4)n23)cc(C(C)(C)C)c1O" please.
Reply: 237 to 238 °C

Query: For "CCOC(=NC(=O)c1ccc(C(F)(F)F)cc1)N1Cc2ccccc2-c2ccccc2C1" , write its melting point.
Reply: 112 to 113 °C

Query: Supply melting point value. Item: "COc1c(C)cc(C(=O)c2cc(-c3ccc(Cl)cc3)c(N3CCOCC3)s2)nc1C"
Reply: 160 °C

Query: Complete the entry with melting point for "Cc1ccc2c(-c3cc(C(C)(C)C)c(O)c(C(C)(C)C)c3)n[nH]c2n1"
Reply: 239 to 240 °C

Origin of measurements: a melting point compilation (Tetko et al.; mined from patent text by program, amines drawn as free bases though some values may be those of a salt)
